Please provide measured pIC50 for the entries that follow.
# ASSAY METHOD TEXT: Inhibition of TNF-alpha inducible Vascular cell adhesion molecule-1 expression.
Give bare numbers, as −log10 of the molar value.

Below, each entry is followed by its recorded pIC50 result.
{"MOLECULE": "CC(C)(Sc1cc(C(C)(C)C)c(O)c(C(C)(C)C)c1)Sc1cc(C(C)(C)C)c(OC(=O)CCCO)c(C(C)(C)C)c1", "pIC50": 4.40}
{"MOLECULE": "CC(C)(Sc1cc(C(C)(C)C)c(O)c(C(C)(C)C)c1)Sc1cc(C(C)(C)C)c(OC(=O)CC(O)CO)c(C(C)(C)C)c1 (stereo unspecified)", "pIC50": 5.10}
{"MOLECULE": "CC(C)(Sc1cc(C(C)(C)C)c(O)c(C(C)(C)C)c1)Sc1cc(C(C)(C)C)c(OC(=O)C(F)(F)C(F)(F)C(F)(F)C(=O)O)c(C(C)(C)C)c1", "pIC50": 4.00}

Hi team, please reply with pIC50 for each item in this list.
1. CC(C)(Sc1cc(C(C)(C)C)c(O)c(C(C)(C)C)c1)Sc1cc(C(C)(C)C)c(OC(=O)C[C@@H](NC(=O)Cc2ccccc2)C(=O)O)c(C(C)(C)C)c1
2. CC(C)(Sc1cc(C(C)(C)C)c(O)c(C(C)(C)C)c1)Sc1cc(C(C)(C)C)c(OC(=O)[C@@H](O)CCC(=O)O)c(C(C)(C)C)c1
3. CC(C)(Sc1cc(C(C)(C)C)c(O)c(C(C)(C)C)c1)Sc1cc(C(C)(C)C)c(OC(=O)CCO)c(C(C)(C)C)c1
4. CC(C)(Sc1cc(C(C)(C)C)c(O)c(C(C)(C)C)c1)Sc1cc(C(C)(C)C)c(OC(=O)CCCCO)c(C(C)(C)C)c1
5. COC(=O)CCC(=O)Oc1c(C(C)(C)C)cc(SC(C)(C)Sc2cc(C(C)(C)C)c(O)c(C(C)(C)C)c2)cc1C(C)(C)C

Result:
4.70
4.60
4.52
4.26
4.40
